Quick record: pKi, Cholecystokinin receptor type A (Cavia porcellus, UniProt Q63931).
pKi: −log10 of the molar value.
reported-endpoint: pKi

I: O=C(O)c1cccc(NC(=O)c2[nH]c(C3CCCCCC3)nc2CCC23CC4CC(CC(C4)C2)C3)c1
II: O=C(O)c1cccc(NC(=O)c2[nH]c(C3CC3)nc2CCC23CC4CC(CC(C4)C2)C3)c1
III: O=C(O)c1cccc(NC(=O)c2nc(C3CCCCC3)[nH]c2COC23CC4CC(CC(C4)C2)C3)c1
Inquiry: Sort the 3 compounds by pKi; largest first, smallest last. Your reply should list the labels following the order given in the request.
Reply text: I, III, II
(I: 6.90, III: 6.25, II: 5.63)

A: Cc1ccccc1-c1nc(C(=O)Nc2cccc(C(=O)O)c2)c(CCC(C)C)[nH]1
B: O=C(O)c1cccc(NC(=O)c2cc(-c3ccccc3)[nH]c2CCC23CC4CC(CC(C4)C2)C3)c1
Inquiry: Dear colleague, could you let me know whether A or B has the lower recorded pKi? Thanks. Answer with the label corresponding to your selection.
Reply text: B
